Numbers sourced from patent US20220177549A1.

# target_desc: equine FcRn complex (equine) (UniProt F6XZ61)
# Sequence (chain, as listed by the source, chain 1 of 2): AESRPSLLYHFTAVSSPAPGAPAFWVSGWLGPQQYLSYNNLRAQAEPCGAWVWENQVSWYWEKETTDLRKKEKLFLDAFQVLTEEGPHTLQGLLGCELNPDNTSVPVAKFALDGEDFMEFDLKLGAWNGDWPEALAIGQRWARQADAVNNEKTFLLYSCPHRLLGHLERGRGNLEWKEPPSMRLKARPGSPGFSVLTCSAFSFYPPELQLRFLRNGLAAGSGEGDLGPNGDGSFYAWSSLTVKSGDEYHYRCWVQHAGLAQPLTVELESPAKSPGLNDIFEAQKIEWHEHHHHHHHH
# Sequence (P30441 other isoform, or with tags, fused parts or gaps, chain 2 of 2): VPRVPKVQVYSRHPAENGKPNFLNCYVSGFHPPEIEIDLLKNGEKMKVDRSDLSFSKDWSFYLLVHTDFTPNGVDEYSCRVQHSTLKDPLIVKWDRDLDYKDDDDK
# experimental_protocol: SPR (Biacore 8K+), pH 5.9, 25 C; FcRn captured by anti-His, IgG as analyte; 1:1 kinetic model
metric: pKd
# pKd = -log10(concentration in molar units)

Equine Y436H (antibody, part only; not given: variable domains and light chain, IgG1, not shown: another chain or arm of the molecule) Fc: APELLGGPSVFIFPPNPKDTLMITRTPEVTCVVVDVSQENPDVKFNWYMDGVEVRTATTRPKEEQFNSTYRVVSVLRIQHQDWLSGKEFKCKVNNQALPQPIERTITKTKGRSQEPQVYVLAPHPDELSKSKVSVTCLVKDFYPPEINIEWQSNGQPELETKYSTTQAQQDSDGSYFLYSKLSVDRNRWQQGTTFTCGVMHEALHNHHTQKNVSKNPGK	6.81

Quick one: pKd of Equine N434Y (antibody, part only; not given: variable domains and light chain, IgG1, not shown: another chain or arm of the molecule) Fc: APELLGGPSVFIFPPNPKDTLMITRTPEVTCVVVDVSQENPDVKFNWYMDGVEVRTATTRPKEEQFNSTYRVVSVLRIQHQDWLSGKEFKCKVNNQALPQPIERTITKTKGRSQEPQVYVLAPHPDELSKSKVSVTCLVKDFYPPEINIEWQSNGQPELETKYSTTQAQQDSDGSYFLYSKLSVDRNRWQQGTTFTCGVMHEALHYHYTQKNVSKNPGK ?
8.63

Quick one: pKd of Equine M428Y (antibody, part only; not given: variable domains, light chain, IgG1, not shown: another chain or arm of the molecule) Fc: APELLGGPSVFIFPPNPKDTLMITRTPEVTCVVVDVSQENPDVKFNWYMDGVEVRTATTRPKEEQFNSTYRVVSVLRIQHQDWLSGKEFKCKVNNQALPQPIERTITKTKGRSQEPQVYVLAPHPDELSKSKVSVTCLVKDFYPPEINIEWQSNGQPELETKYSTTQAQQDSDGSYFLYSKLSVDRNRWQQGTTFTCGVYHEALHNHYTQKNVSKNPGK ?
6.82
